assay: Absorbance at photostationary state (PSS) under simulated sunlight or 365 nm light; assay type: physicochemical; conditions: simulated sunlight with UV blocking film (cutoff 370 nm); 2.0×10^−5 M in triglyme
Class class 1: Absorbance at PSS, +UV at least 0.09. Class class 0: Absorbance at PSS, +UV below 0.09.

{"columns": ["SMILES REPRESENTATION", "CLASS NAME"],
 "data": [
  ["COc1ccc(-c2cc(C3=C(c4cc(-c5ccc(OC)cc5)sc4-c4ccc(OC)cc4)C(F)(F)C(F)(F)C3(F)F)c(-c3ccc(OC)cc3)s2)cc1", "class 0"],
  ["COc1ccc(-c2sc(-c3cc4ccccc4s3)cc2C2=C(c3cc(-c4cc5ccccc5s4)sc3-c3ccc(OC)cc3)C(F)(F)C(F)(F)C2(F)F)cc1", "class 1"],
  ["COc1cccc(-c2cc(C3=C(c4cc(-c5cccc(OC)c5)sc4-c4cccc(OC)c4)C(F)(F)C(F)(F)C3(F)F)c(-c3cccc(OC)c3)s2)c1", "class 0"]
]}

Ask: State whether the measured Absorbance at PSS, +UV reaches 0.09, counting equality as reaching it, for `CCOCCOCCOCCOc1ccc(-c2sc(-c3ccc(C(C)(C)C)s3)cc2C2=C(c3cc(-c4ccc(C(C)(C)C)s4)sc3-c3ccc(OCCOCCOCCOCC)cc3)C(F)(F)C(F)(F)C2(F)F)cc1`
Result: class 1

Ask: Try the compound `COc1ccc2c(C3=C(c4c(-c5ccc(C(C)(C)C)cc5)oc5cc(OC)ccc45)C(F)(F)C(F)(F)C3(F)F)c(-c3ccc(C(C)(C)C)cc3)oc2c1`
Result: class 0

Ask: Try the compound `CC(C)(C)c1ccc(-c2cc(C3=C(c4cc(-c5sc(C(C)(C)C)cc5C(=O)O)sc4-c4ccc(C(=O)O)s4)C(F)(F)C(F)(F)C3(F)F)c(-c3ccc(C(=O)O)s3)s2)s1`
Result: class 1

Ask: Try the compound `COc1ccc(-c2cc(C3=C(c4cc(-c5ccc(OC)s5)sc4-c4ccc(OC)s4)C(F)(F)C(F)(F)C3(F)F)c(-c3ccc(OC)s3)s2)s1`
Result: class 0

Ask: Try the compound `COCCOc1ccc(-c2sc(-c3ccc(C(C)(C)C)s3)cc2C2=C(c3cc(-c4ccc(C(C)(C)C)s4)sc3-c3ccc(OCCOC)cc3)C(F)(F)C(F)(F)C2(F)F)cc1`
Result: class 1
